Can you tell me IC50 for the items I'm about to list?
Units required after the number.

Query block: Which measured IC50 belongs to CCc1nc(C)cn1-c1ccc2nc(C)c3c(C)nc(CC)n3c2n1 [Example 57a] , tested on PDE10 from pig striatum (Sus scrofa, UniProt A0A287B941)?
Result block: 11 nM

Query block: Field: IC50 (PDE10 from pig striatum (Sus scrofa, UniProt A0A287B941)). Entry: COc1ccc2nc(Cl)c3c(C)nc(CCC(F)(F)F)n3c2n1 [Intermediate A7]
Result block: 34 nM

Query block: Missing value: IC50, PDE10 from pig striatum (Sus scrofa, UniProt A0A287B941), entry COc1ccc2nc(Cl)c3c(C)nc(-c4ccccc4)n3c2n1 [Intermediate A9] . Fill in?
Result block: 4 nM

Query block: Lab note: need IC50 for CCCc1nc(C)c2c(Cl)nc3cccnc3n12 [Intermediate A12] on PDE10 from pig striatum (Sus scrofa, UniProt A0A287B941), anyone have it?
Result block: 38 nM

Query block: Lab note: need IC50 with PDE10 from pig striatum (Sus scrofa, UniProt A0A287B941) for entry CCCc1nc(C)c2c(Cl)nc3ccc(C)nc3n12 [Intermediate A19] , please look it up.
Result block: 9 nM

Query block: Form entry - test system: PDE10 from pig striatum (Sus scrofa, UniProt A0A287B941); read-out: IC50; molecule: COc1ccc2nc(Cl)c3c(C)nc(C4CCCCC4)n3c2n1 [Intermediate A4]
Result block: 2 nM

Query block: Record CCc1nc(C)c2c(Cl)nc3ccc(N4CCN(C)CC4)nc3n12 [Intermediate A22] : what is its IC50 with PDE10 from pig striatum (Sus scrofa, UniProt A0A287B941)?
Result block: 52 nM

Query block: Param readout = IC50; param system = PDE10 from pig striatum (Sus scrofa, UniProt A0A287B941); param query = CCc1nc(C)cn1-c1ccc2nc(Cl)c3c(C)nc(CC)n3c2n1 [Intermediate A23] ; response: value
Result block: 3 nM

Query block: What is its IC50 for PDE10 from pig striatum (Sus scrofa, UniProt A0A287B941)? Entry: CCCc1nc(C)cn1-c1ccc2nc(Cl)c3c(C)nc(CCC)n3c2n1 [Intermediate A24]
Result block: 2 nM

Query block: Kindly state the measured IC50 obtained for CCCc1ncc2c(C)nc3ccc(OC)nc3n12 [Example 53a] with PDE10 from pig striatum (Sus scrofa, UniProt A0A287B941).
Result block: 43 nM

Query block: Form field - read-out: IC50; system: PDE10 from pig striatum (Sus scrofa, UniProt A0A287B941); submitted item: CCc1nc(C)c2c(Cl)nc3ccc(N(CC)CC)nc3n12 [Intermediate A20]
Result block: 11 nM

Query block: I'm curious: which IC50 was measured for CCc1nc(C)c2c(Cl)nc3cccnc3n12 [Intermediate A11] tested on PDE10 from pig striatum (Sus scrofa, UniProt A0A287B941)?
Result block: 97 nM

Query block: Query IC50 on PDE10 from pig striatum (Sus scrofa, UniProt A0A287B941) for CCCc1ncc2c(Cl)nc3ccc(OC)nc3n12 [Intermediate A13]
Result block: 53 nM

Query block: Give recorded IC50 with PDE10 from pig striatum (Sus scrofa, UniProt A0A287B941) for the following molecule: CCCCCCc1nc(C)c2c(Cl)nc3ccc(OC)nc3n12 [Intermediate A5]
Result block: 71 nM

Query block: API: value(readout=IC50, system=PDE10 from pig striatum (Sus scrofa, UniProt A0A287B941)) for record CCCCCc1nc(C)c2c(Cl)nc3ccc(OC)nc3n12 [Intermediate A6]
Result block: 56 nM

Query block: # value lookup — system PDE10 from pig striatum (Sus scrofa, UniProt A0A287B941), readout IC50, item COc1ccc2nc(Cl)c3cnc(C(C)C)n3c2n1 [Intermediate A14]
Result block: 128 nM

Query block: What IC50 appears in the records for this molecule with PDE10 from pig striatum (Sus scrofa, UniProt A0A287B941)? CCCc1nc(C)c2c(Cl)nc3ccc(N4CCCCC4)nc3n12 [Intermediate A21]
Result block: 5 nM

Query block: # get_value(readout= IC50, system= PDE10 from pig striatum (Sus scrofa, UniProt A0A287B941)) for CCCc1nc(C)c2n1-c1nc(OC)ccc1N(C(C)=O)C2 [Example 95a]
Result block: 222 nM

Query block: Query IC50 on PDE10 from pig striatum (Sus scrofa, UniProt A0A287B941) for CCc1nc(C)c2c(Br)nc3ccc(O)nc3n12 [Intermediate A26]
Result block: 46 nM

Query block: Query IC50 on PDE10 from pig striatum (Sus scrofa, UniProt A0A287B941) for CCCc1nc(C)c2n1-c1nc(OC)ccc1NC2 [Example 91a]
Result block: 108 nM

====

Target: PDE10 from rat striatum (Rattus norvegicus)
Construct: 0.5 g of the isolated and frozen striatum was homogenised; from tissue; host or cells: rat striatum, ion-exchange FPLC fractions with PDE10 activity
Sequence (Q9QYJ6 1-794): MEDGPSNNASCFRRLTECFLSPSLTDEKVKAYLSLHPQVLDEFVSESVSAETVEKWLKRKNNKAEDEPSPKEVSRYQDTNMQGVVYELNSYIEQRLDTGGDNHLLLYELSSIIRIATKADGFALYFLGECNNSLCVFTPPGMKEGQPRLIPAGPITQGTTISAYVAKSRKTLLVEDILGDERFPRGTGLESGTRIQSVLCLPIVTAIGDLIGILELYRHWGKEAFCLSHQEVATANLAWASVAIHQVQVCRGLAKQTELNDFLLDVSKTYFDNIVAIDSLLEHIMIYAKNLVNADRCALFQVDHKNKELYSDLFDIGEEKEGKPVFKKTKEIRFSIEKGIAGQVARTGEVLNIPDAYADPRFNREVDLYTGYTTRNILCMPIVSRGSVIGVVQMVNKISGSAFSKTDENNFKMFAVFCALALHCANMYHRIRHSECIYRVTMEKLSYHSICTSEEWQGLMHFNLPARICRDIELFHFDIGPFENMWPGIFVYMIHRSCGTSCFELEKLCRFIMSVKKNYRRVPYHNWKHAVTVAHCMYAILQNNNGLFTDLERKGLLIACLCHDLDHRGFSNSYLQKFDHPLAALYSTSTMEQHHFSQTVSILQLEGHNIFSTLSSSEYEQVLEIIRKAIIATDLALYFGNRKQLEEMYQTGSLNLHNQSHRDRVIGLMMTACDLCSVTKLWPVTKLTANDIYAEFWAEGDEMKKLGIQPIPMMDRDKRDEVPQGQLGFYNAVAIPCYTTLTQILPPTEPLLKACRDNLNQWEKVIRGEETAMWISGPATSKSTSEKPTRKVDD
Assay: Inhibition of PDE10 from rat striatum
Format: biochemical
Conditions: 0.1 μM [3H]-cAMP, 37° C., 30 minutes
endpointName: IC50
A complete answer gives the number and then names the unit.

Query block: What IC50 appears in the records for this molecule with PDE10 from rat striatum (Rattus norvegicus)? CCc1nc(C)c2c(Cl)nc3cccnc3n12 [Intermediate A11]
Result block: 171 nM

Query block: Please provide the recorded IC50 for CCCc1nc(C)c2c(N(S(C)(=O)=O)S(C)(=O)=O)nc3ccc(OC)nc3n12 [Example 70a] , tested on PDE10 from rat striatum (Rattus norvegicus).
Result block: 72 nM

Query block: Under PDE10 from rat striatum (Rattus norvegicus): IC50 value of CCCc1nc(C)c2n1-c1nc(OC)ccc1N(C(C)=O)C2 [Example 95a] ?
Result block: 335 nM

Query block: Param readout= IC50; system= PDE10 from rat striatum (Rattus norvegicus); entry= CCCc1nc(C)c2n1-c1nc(OC)ccc1NC2 [Example 91a] ; returns value.
Result block: 159 nM

====

endpointName: melting point

Query block: Suppose we examine the compound COc1ccc2nc(Cl)c3c(C)nc(C4CCCCC4)n3c2n1 [Intermediate A4] ; what melting point value has been reported?
Result block: 211 to 213 °C

Query block: I'd like to know its melting point. The compound in question is COc1ccc2nc(Cl)c3cnc(C(C)C)n3c2n1 [Intermediate A14]
Result block: 162 to 164 °C

Query block: Would you mind telling me what melting point value was observed for CCc1nc(C)c2c(Cl)nc3ccc(N4CCN(C)CC4)nc3n12 [Intermediate A22] ?
Result block: 283 to 285 °C

Query block: Query: melting point; subject: CCCc1nc(C)c2c(Cl)nc3ccc(C)nc3n12 [Intermediate A19]
Result block: 99 to 101 °C

Query block: Report melting point for CCc1nc(C)c2c(Br)nc3ccc(O)nc3n12 [Intermediate A26] please.
Result block: > 360 °C

Query block: Any idea what its melting point is? The compound is CCc1nc(C)cn1-c1ccc2nc(Cl)c3c(C)nc(CC)n3c2n1 [Intermediate A23]
Result block: 138 to 141 °C

Query block: For CCCc1nc(C)c2n1-c1nc(OC)ccc1NC2 [Example 91a] , what is its reported melting point?
Result block: 157 to 160 °C

Query block: Look up melting point for this compound: CCCCCc1nc(C)c2c(Cl)nc3ccc(OC)nc3n12 [Intermediate A6]
Result block: 110.5 to 113 °C

Query block: I am curious: what melting point value has been reported for CCCc1nc(C)c2c(Cl)nc3cccnc3n12 [Intermediate A12] ?
Result block: 138 to 140 °C

Query block: Field request: melting point | item: COc1ccc2nc(Cl)c3c(C)nc(CCC(F)(F)F)n3c2n1 [Intermediate A7]
Result block: 149 to 153 °C

Query block: Record request: melting point value, item `CCCc1nc(C)cn1-c1ccc2nc(N)c3c(C)nc(CCC)n3c2n1`
Result block: 215 to 221 °C

Query block: Which value of melting point has been reported for COc1ccc2nc(Cl)c3c(C)nc(-c4ccccc4)n3c2n1 [Intermediate A9] in the records?
Result block: 240 to 242 °C

Query block: Please give the measured melting point for this compound: CCCCCCc1nc(C)c2c(Cl)nc3ccc(OC)nc3n12 [Intermediate A5]
Result block: 115 to 117 °C

Query block: Entry CCc1nc(C)c2c(Cl)nc3cccnc3n12 [Intermediate A11] has what melting point?
Result block: 117 to 120 °C

Query block: Which melting point value is on record for CCc1nc(C)c2n1-c1nc(OC)ccc1NC2 [Example 93a] ?
Result block: 139 to 142 °C

Query block: Quick one: melting point of CCc1nc(C)cn1-c1ccc2nc(C)c3c(C)nc(CC)n3c2n1 [Example 57a] ?
Result block: 73 to 75 °C

Query block: Need melting point, item CCCc1ncc2c(Cl)nc3ccc(OC)nc3n12 [Intermediate A13]
Result block: 153 to 155 °C

Query block: What value of melting point has been reported for the following compound? CCc1nc(C)c2c(Cl)nc3ccc(N(CC)CC)nc3n12 [Intermediate A20]
Result block: 145 to 150 °C

Query block: Could you share which melting point value was measured for CCCc1nc(C)cn1-c1ccc2nc(Cl)c3c(C)nc(CCC)n3c2n1 [Intermediate A24] ?
Result block: 134 to 136 °C
